# test_method_notes: In vitro plasma protein binding in dog at 0.5 ug/ml by ultrafiltration method
# Assay type: ADME, cell-free, Canis lupus familiaris
# condition_summary: read-out: PPB (converted)
reported_property: fraction unbound at 0.5 ug/ml
Field format: numeric only.

For the molecule N[14c]1[14cH][14cH][14c](OS(=O)(=O)O)[14cH][14c]1Cl , what fraction unbound at 0.5 ug/ml is on record?
0.098

###

# test_method_notes: Drug uptake in Beagle dog plasma at 0.5 mg/kg, iv administered as bolus dose after 5 mins by HPLC-based liquid scintillation counting analysis
# Format: ADME, organism-based, Canis lupus familiaris
# Parameters: dose 0.5 mg/kg, route intravenous
reported_property: concentration at 5 min (ng/mL)
Dear colleague, please return just the value in ng/mL, with no unit written.

For the compound N[14c]1[14cH][14cH][14c](OS(=O)(=O)O)[14cH][14c]1Cl , what concentration at 5 min is on record?
4690

###

# test_method_notes: Total body clearance in Beagle dog at 0.5 mg/kg, iv administered as bolus dose by HPLC-based liquid scintillation counting analysis
# Type: ADME, organism-based, Canis lupus familiaris
# Set-up: dose 0.5 mg/kg, route intravenous
# condition_summary: in vivo
reported_property: clearance (mL/day/kg)
Dear colleague, please return just the value in mL/day/kg, with no unit written.

For the compound N[14c]1[14cH][14cH][14c](OS(=O)(=O)O)[14cH][14c]1Cl , what clearance is on record?
21.2

###

# test_method_notes: AUC infinity in Beagle dog at 0.5 mg/kg, iv administered as bolus dose by HPLC-based liquid scintillation counting analysis
# Type: ADME, organism-based, Canis lupus familiaris
# Parameters: time infinity, dose 0.5 mg/kg, route intravenous
# condition_summary: plasma
reported_property: AUC(0-inf) (µg·h/mL)
Dear colleague, please return just the value in µg·h/mL, with no unit written.

For the molecule N[14c]1[14cH][14cH][14c](OS(=O)(=O)O)[14cH][14c]1Cl , what AUC(0-inf) is on record?
596

###

# test_method_notes: Drug recovery in Beagle dog urine at 0.5 mg/kg, iv administered as bolus dose measured from 0 to 168 hrs by HPLC-based liquid scintillation counting analysis
# Assay type: ADME, organism-based, Canis lupus familiaris
# Parameters: dose 0.5 mg/kg, route intravenous
# condition_summary: read-out: Drug recovery
reported_property: dose excreted (%)
Dear colleague, please return just the value in %, with no unit written.

For the compound N[14c]1[14cH][14cH][14c](OS(=O)(=O)O)[14cH][14c]1Cl , what dose excreted is on record?
19.5

###

# test_method_notes: Elimination half life in iv dosed rat plasma
# Type: ADME, organism-based
# condition_summary: read-out: beta t1/2 (converted)
reported_property: half-life (h)
Dear colleague, please return just the value in h, with no unit written.

For the compound CCOC(=O)C1=CCCC[C@H]1S(=O)(=O)N[14c]1[14cH][14cH][14c](F)[14cH][14c]1Cl , what half-life is on record?
5.6

###

# test_method_notes: AUC infinity in Crj:CD(SD)IGS rat at 0.5 mg/kg, iv administered as bolus dose by HPLC-based liquid scintillation counting analysis
# Type: ADME, organism-based
# Set-up: time infinity, dose 0.5 mg/kg, route intravenous
# condition_summary: plasma
reported_property: AUC(0-inf) (µg·h/mL)
Dear colleague, please return just the value in µg·h/mL, with no unit written.

For the molecule N[14c]1[14cH][14cH][14c](OS(=O)(=O)O)[14cH][14c]1Cl , what AUC(0-inf) is on record?
0.802
